# experimentDescription: yeast display, Sf9 membrane polyspecificity reagent, FACS + sequencing; frameworks hold sequencing errors
attributeMeasured: polyreactivity (PSR sort gate)

QVQLVESGGGLVHAGGSLRLSCAASGSTSGIYAMGWYRQAPGKERELVAAIDTSGGSTYADSLKGRFTISRDNAKYTVYLQMNSLKPEDTAGYYCAKPFSSNSWSHGYWGQGTQVTVSS
low polyreactivity
QVQLVESGAGLVQAGGSLRSSCAASGSTFSGNAMGLYRQAPGKERELVAAISGRGGSTYYADSVKGRFTISRDNAKNSVYLQMNSLKPEDTAVYYCAKRRNTRGAYGYWGQGTQVTVSS
high polyreactivity
QVQLVESGGGLDQAGGSLRLSCAASGFIFGVSVMGWYRPAPGKERELVAAMSGRGGSTFYADSVKGRFTISRDNAKNTVYLQMNSLKPEDTAVYYCAAKSTGPSMDYWGQGTQVTVSS
high polyreactivity
QVQLVESGGGLVQAGGSLRLSCAASGGLFTLNAMGWYRQAPGKEREMVAGISWSGDRTYYADSVKGRFTISRDNAKNTVYLQMNSLKPEDTAVYYCAAYDYWGQGTQVTVSS
low polyreactivity

###

# experimentDescription: yeast display, Sf9 membrane polyspecificity reagent, FACS + sequencing; frameworks hold sequencing errors
attributeMeasured: polyreactivity (PSR sort gate)

Worked cases, answers included:
QVQLVESGGGLVQAGGSLRLSCAASGIIFYGYDMGWYRQAPGKERELVAAITWSGGSTYYADSVKGRFTISRDNAKNTVYLQMNSLKPEDTAVYYCNADLDSGYGSYDYWGQGTQVTVSS
low polyreactivity
QVQLVESGGGLVQAGGSLRLSCAASGSTFGKYAMGWYRQAPGKERELVAAITTGGNTSYADSVKGRFTISRDNANNTVYLQMNSLKPEDTAVYYCNAKRSFRVDYWGQGTQVTVSS
low polyreactivity
QVQLVESGGGLVQAGGSLRLSCAASGSIFSWYAMGWYRQAPGKERELVAAIDSGSKYYADSVKGRFTISRDNAKNTVYLQMNSLKPEDTAVYYCAVDYGYYYWEPWPSDYDMYSWGQGTQVTVSS
high polyreactivity
QVQLVESGGGLVQAGGSLRLSCAASGYTDYAMGWYRQAPGKERELVATITSGDNTNYADSVKGRFTISRDNAKNTVDLQMNSLKPEDTAVYYCAAEYGMHYGIDYWGQGTQVTVSS
low polyreactivity
QVQHVESGGNLFKAGGSLRLSCAASGITFVYNAMGWYRPAPGKERELVDGITWSGSSTYYADSVKGRFTISRDNAKNTVYFHMNSLKPDDTAVYYCDAYLYDRTTRYTYYYWGQGTQVTVSS
high polyreactivity
QVQLVESGGGLVQAGGSLRLSCAASGSIFGPNAMGWYRQAPGKERELVAAITSGSSTKYADSVKGRFTISRDNAKNPVYLQMNSLKPEDTAVYYCAASGTTTWKYGYWGQGTQVTVSS
low polyreactivity
QVQLVESGGGLVQAGGSLRLSCAASGNIFRYNAMGWYRQAPGKERELVAAISRGGSTKYADSVKGRFTISRDNAKNTVYLQMNSLKPEDTAVFYCARVKSTGSTFASPYDYWGQGTQVTVSS
high polyreactivity

Here is another sequence to look at.
Entry QVQLVESGGGLVQAGGSLRLSCAASGSTFVSNVMGWYRQAPGKERELVAAITSGGSTYYADSVKGRFTISRDNAKNTVYLQMNSLKPEDTAVYYCAAGGRWARWLFPSRYDYWGQGTQVTVSS : reported polyreactivity (PSR sort gate) = ? low polyreactivity
